# assayed.system: recombinant human FLAP protein (Homo sapiens, UniProt P20292)
# Construct: made in house; host or cells: Sf9 insect cells (membrane fraction, 100,000 x g pellet)
# Sequence (P20292 whole entry): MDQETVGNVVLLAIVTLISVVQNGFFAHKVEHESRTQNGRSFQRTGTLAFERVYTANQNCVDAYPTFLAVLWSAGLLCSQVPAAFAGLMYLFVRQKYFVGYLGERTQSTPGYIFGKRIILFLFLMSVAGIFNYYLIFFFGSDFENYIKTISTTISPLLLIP
# test.description: FLAP binding assay (Scintillation Proximity Assay, displacement of [125I]L-691,831)
# condition: read-out: Human FLAP SPA Binding (IC50 nM)
# Experimental: Compounds are assessed for the ability to bind to FLAP in a binding assay that measures compound-specific displacement of an iodinated (^125I) FLAP inhibitor via a Scintillation Proximity Assay format (adapted from S. Charleson et al., Mol. Pharmacol., 1992, 41, 873-879). Cell pellets produced from sf9 insect cells expressing recombinant human FLAP protein are resuspended in buffer A [15 mM Tris-HCl (pH 7.5), 2 mM MgCl2, 0.3 mM EDTA, 1 mM PMSF]. […]
property.measured: IC50 (nM)

A selection of reference data follows.
>>> readout_number("CN(C)CCn1cc(-c2cc(C(C)(c3ccc(-c4cnc(N)nc4)cc3)C3CC3)no2)cn1 (stereo not shown)")
9.9
>>> readout_number("CS(=O)(=O)c1ccc2c(C3(c4ccc(-c5cnc(N)nc5)cc4)CCC3)c[nH]c2c1")
0.75

P. Cc1cc(C2(c3c[nH]c4ccccc34)CCC2)ccc1-c1cnc(N)nc1
Q. c1cnc2[nH]cc(C3(c4ccc(-c5cnc6[nH]ccc6c5)cc4)CCC3)c2c1
**Q:** Would you kindly point out which of P and Q has the smaller IC50 figure? Selection: enter the item's label.
**A:** Q
(Q: 1.5 nM, P: 7 nM)
